- procedure_details: melting temperature; fluorescence melt of hairpins on a sequencing array, two-state fit, raised by 9.35 °C to match UV melts
- cond: sodium 0.088 M
// returns NO unless Tm is strictly below 50 °C, in which case YES

is_below(Tm, 50 °C) for GTGACAGGAAACTGTCGC (.(((((....))))).) ?
NO

is_below(Tm, 50 °C) for GAGTAGGGAAACCTATTC ((.((((....)))).)) ?
YES

is_below(Tm, 50 °C) for GAACCCGAAAGGGAGTTC ((((((....)))..))) ?
YES

is_below(Tm, 50 °C) for GCATTGCGAAAGCTCTGC (((..((....))..))) ?
YES

---

- procedure_details: folding enthalpy; higher = less favourable; fluorescence melt of hairpins on a sequencing array, two-state fit
- cond: sodium 0.088 M
Please use Criterion met whenever folding enthalpy is not below -20 kcal/mol, and Criterion not met whenever it is.

The following sequences have reported results that may help.
sequence_content	category
AGGCAGAAATGCCT (((((....)))))	Criterion met
GATCCGAAAGGATC (((((....)))))	Criterion not met
GTTCCCGGAAACAGGAAC (((((.(....).)))))	Criterion not met
GTACCCCGAAAGGGCTAC (((.(((....))).)))	Criterion met
GGCTTCGGAAACGGAGTC (.((.((....)).)).)	Criterion not met

Decide: is the reported value of folding enthalpy for GTGCTGCGAAAGCATCAC (((.(((....))).))) equal to or greater than -20 kcal/mol?
Criterion not met

Decide: is the reported value of folding enthalpy for GATCAAGCATTGATC ((((((...)))))) equal to or greater than -20 kcal/mol?
Criterion not met

Decide: is the reported value of folding enthalpy for CGTCCGGAAACGGAACG ((((((....))).))) equal to or greater than -20 kcal/mol?
Criterion not met

Decide: is the reported value of folding enthalpy for GATCTATTGTAGATC ((((((...)))))) equal to or greater than -20 kcal/mol?
Criterion not met

Decide: is the reported value of folding enthalpy for GATCGACCTATCGATC ((((((....)))))) equal to or greater than -20 kcal/mol?
Criterion not met

Decide: is the reported value of folding enthalpy for GAATGGGAAACCATTC ((((((....)))))) equal to or greater than -20 kcal/mol?
Criterion not met

Decide: is the reported value of folding enthalpy for GCCCGCGAAAGCGTGGGC ((((((....)))..))) equal to or greater than -20 kcal/mol?
Criterion not met

---

- procedure_details: melting temperature; fluorescence melt of hairpins on a sequencing array, two-state fit, raised by 9.35 °C to match UV melts
- cond: sodium 0.088 M
Exercise: state measured Tm for each of the sequences provided.
Numbers only, in °C.

See these solved cases before continuing.
sequence_content	output_unit	Tm
GTTGCCGAAAGGCAAAAC ((((((....)))..)))	°C	42.5
GATCGCGCCGGCGATC ((((((....))))))	°C	68.2
GGAGGCCCGAAAGGGTCC (((..(((....))))))	°C	42.6
GATCTATATTTAGATC ((((((....))))))	°C	43.1
GATCCACGTTGGATC ((((((...))))))	°C	50.6
GCCGAACGAAAGTTTGGC (((.(((....))).)))	°C	66
GATCTAGTGATAGATC ((((((....))))))	°C	45.7
GCAAAGCGAAAGCATAGC ((.(.((....)).).))	°C	33.4
GGTGTGCGAAAGCAAACC (((.(((....))).)))	°C	56
GGGAGCCCGAAAGGGCCC (((..(((....))))))	°C	58.8

Parameters: items (list). Returns: Tm for each item.
1. GCTGTGGGAAACTGCAGC ((((..(....)..))))
2. GATCAGGATCTGATC ((((((...))))))

[48.1, 48]

---

- procedure_details: melting temperature; fluorescence melt of hairpins on a sequencing array, two-state fit, raised by 9.35 °C to match UV melts
- cond: sodium 0.088 M
Exercise: state measured Tm for each of the sequences provided.
Give bare numbers, in °C.

See these solved cases before continuing.
sequence_content	Tm (°C)
GTTAGTGGAAACACTAAC (((((((....)))))))	54.7
GTTGTAGGAAACTACGAC ((.((((....)))).))	45.8

Parameters: items (list). Returns: Tm for each item.
1. GAGATGGGAAACCATCCC (.(((((....))))).)
2. GCCTTCGAAAGAACGGGC ((((((....)))..)))
3. GATGTCGCGAAAGCGATC (((..(((....))))))
4. AAACCGAAAGGTTT (((((....)))))

38.7
41
31.1
52.8

---

- procedure_details: melting temperature; fluorescence melt of hairpins on a sequencing array, two-state fit, raised by 9.35 °C to match UV melts
- cond: sodium 0.088 M
Exercise: state measured Tm for each of the sequences provided.
Give bare numbers, in °C.

sequence_content	Tm / °C
GATCTAGTTGTAGATC ((((((....))))))	41.2
GCAGTGCGAAAGCCCTGC ((((.((....)).))))	61.8
GGAAGAGGAAACTCTTTC (.(((((....))))).)	37.3
GGAGGCGAAAGCCTCTCC ((((((....)))..)))	54.2
GCAGGGCCGAAAGGCTGC (((..(((....))))))	55.3

Now for the sequence whose Tm we want.
Given the sequence GTGCGACGAAAGTCACAC (((.(((....))).))) , what is its reported Tm?
54.3

---

Exercise: state measured folding enthalpy for each of the sequences provided.
- procedure_details: folding enthalpy; higher = less favourable; fluorescence melt of hairpins on a sequencing array, two-state fit
- cond: sodium 0.088 M
Give bare numbers, in kcal/mol.

sequence_content	folding enthalpy (kcal/mol)
GTTGTAGGAAACTGCAAC ((((.((....)).))))	-17.8

Parameters: items (list). Returns: folding enthalpy for each item.
1. GCGATGAGTCGC ((((....))))
2. GATGACGAAAGTCACATC ((((((....)))..)))
3. GCGTGGCGAAAGCTAGGC ((.(.((....)).).))
4. GATCGTAATAACGATC ((((((....))))))
5. GCCTGCGAAAGCAGTGGC ((((((....)))..)))
6. GCGCTCCGAAAGGATCGC (((.(((....))).)))
7. GCGAAGCGAAAGCTTTGC ((.((((....)))).))

1. -30.5
2. -8.72
3. -20.4
4. -37
5. -14.8
6. -41
7. -22.4

Parameters: items (list). Returns: folding enthalpy for each item.
1. GCAGAAGGAAACTCCTGC ((((.((....)).))))
2. CAAGGGAAACCTTG (((((....)))))
3. GATCTCCGCGGAGATC ((((((....))))))

-20.9
-27.8
-50.1

Given the sequence GATCCTGTGAGGATC ((((((...)))))) , what is its reported folding enthalpy?
-32.3

---

- procedure_details: melting temperature; fluorescence melt of hairpins on a sequencing array, two-state fit, raised by 9.35 °C to match UV melts
- cond: sodium 0.088 M
Please use condition met whenever Tm is not below 40 °C, and condition not met whenever it is.

sequence_content	category
GCCCTTTCGAAAGAAGGC (((..(((....))))))	condition not met

Decide: is the reported value of Tm for GAGGTTGGAAACAACCTC (((((((....))))))) equal to or greater than 40 °C?
condition met

Decide: is the reported value of Tm for GAAATAGCGAAAGCTTTC (((..(((....)))))) equal to or greater than 40 °C?
condition not met

Decide: is the reported value of Tm for GTGTCCGGAAACGGGCAC (((.(((....))).))) equal to or greater than 40 °C?
condition met

---

Exercise: state measured Tm for each of the sequences provided.
- procedure_details: melting temperature; fluorescence melt of hairpins on a sequencing array, two-state fit, raised by 9.35 °C to match UV melts
- cond: sodium 0.088 M
Numbers only, in °C.

See these solved cases before continuing.
sequence_content	output_unit	Tm
GCAAAGAAATTTGC (((((....)))))	°C	38.9
GGAGTTGCGAAAGCATCC (((..(((....))))))	°C	32.5
GGCAAGGGAAACCTTACC ((.((((....)))).))	°C	37.4
GGTTCCGGAAACGGAGTC (..((((....))))..)	°C	34.1
GATCCGTCCCGGATC ((((((...))))))	°C	61

Parameters: items (list). Returns: Tm for each item.
1. GCTAGCGAAAGCTTAGC ((((((....))).)))
2. GATCGTTTGTACGATC ((((((....))))))
3. GAGCCCGAAAGGGTCCTC ((((((....)))..)))
4. GCAACGCGAAAGCAATGC (((..((....))..)))

[52.5, 56, 42.5, 40.6]

Values from the array DNA melting data of Ke et al. (doi:10.1101/2024.01.08.574731)
